- tested-on: Genome polyprotein (Coxsackievirus B3 (strain Nancy)) (UniProt P03313)
- Sequence (P03313 whole entry): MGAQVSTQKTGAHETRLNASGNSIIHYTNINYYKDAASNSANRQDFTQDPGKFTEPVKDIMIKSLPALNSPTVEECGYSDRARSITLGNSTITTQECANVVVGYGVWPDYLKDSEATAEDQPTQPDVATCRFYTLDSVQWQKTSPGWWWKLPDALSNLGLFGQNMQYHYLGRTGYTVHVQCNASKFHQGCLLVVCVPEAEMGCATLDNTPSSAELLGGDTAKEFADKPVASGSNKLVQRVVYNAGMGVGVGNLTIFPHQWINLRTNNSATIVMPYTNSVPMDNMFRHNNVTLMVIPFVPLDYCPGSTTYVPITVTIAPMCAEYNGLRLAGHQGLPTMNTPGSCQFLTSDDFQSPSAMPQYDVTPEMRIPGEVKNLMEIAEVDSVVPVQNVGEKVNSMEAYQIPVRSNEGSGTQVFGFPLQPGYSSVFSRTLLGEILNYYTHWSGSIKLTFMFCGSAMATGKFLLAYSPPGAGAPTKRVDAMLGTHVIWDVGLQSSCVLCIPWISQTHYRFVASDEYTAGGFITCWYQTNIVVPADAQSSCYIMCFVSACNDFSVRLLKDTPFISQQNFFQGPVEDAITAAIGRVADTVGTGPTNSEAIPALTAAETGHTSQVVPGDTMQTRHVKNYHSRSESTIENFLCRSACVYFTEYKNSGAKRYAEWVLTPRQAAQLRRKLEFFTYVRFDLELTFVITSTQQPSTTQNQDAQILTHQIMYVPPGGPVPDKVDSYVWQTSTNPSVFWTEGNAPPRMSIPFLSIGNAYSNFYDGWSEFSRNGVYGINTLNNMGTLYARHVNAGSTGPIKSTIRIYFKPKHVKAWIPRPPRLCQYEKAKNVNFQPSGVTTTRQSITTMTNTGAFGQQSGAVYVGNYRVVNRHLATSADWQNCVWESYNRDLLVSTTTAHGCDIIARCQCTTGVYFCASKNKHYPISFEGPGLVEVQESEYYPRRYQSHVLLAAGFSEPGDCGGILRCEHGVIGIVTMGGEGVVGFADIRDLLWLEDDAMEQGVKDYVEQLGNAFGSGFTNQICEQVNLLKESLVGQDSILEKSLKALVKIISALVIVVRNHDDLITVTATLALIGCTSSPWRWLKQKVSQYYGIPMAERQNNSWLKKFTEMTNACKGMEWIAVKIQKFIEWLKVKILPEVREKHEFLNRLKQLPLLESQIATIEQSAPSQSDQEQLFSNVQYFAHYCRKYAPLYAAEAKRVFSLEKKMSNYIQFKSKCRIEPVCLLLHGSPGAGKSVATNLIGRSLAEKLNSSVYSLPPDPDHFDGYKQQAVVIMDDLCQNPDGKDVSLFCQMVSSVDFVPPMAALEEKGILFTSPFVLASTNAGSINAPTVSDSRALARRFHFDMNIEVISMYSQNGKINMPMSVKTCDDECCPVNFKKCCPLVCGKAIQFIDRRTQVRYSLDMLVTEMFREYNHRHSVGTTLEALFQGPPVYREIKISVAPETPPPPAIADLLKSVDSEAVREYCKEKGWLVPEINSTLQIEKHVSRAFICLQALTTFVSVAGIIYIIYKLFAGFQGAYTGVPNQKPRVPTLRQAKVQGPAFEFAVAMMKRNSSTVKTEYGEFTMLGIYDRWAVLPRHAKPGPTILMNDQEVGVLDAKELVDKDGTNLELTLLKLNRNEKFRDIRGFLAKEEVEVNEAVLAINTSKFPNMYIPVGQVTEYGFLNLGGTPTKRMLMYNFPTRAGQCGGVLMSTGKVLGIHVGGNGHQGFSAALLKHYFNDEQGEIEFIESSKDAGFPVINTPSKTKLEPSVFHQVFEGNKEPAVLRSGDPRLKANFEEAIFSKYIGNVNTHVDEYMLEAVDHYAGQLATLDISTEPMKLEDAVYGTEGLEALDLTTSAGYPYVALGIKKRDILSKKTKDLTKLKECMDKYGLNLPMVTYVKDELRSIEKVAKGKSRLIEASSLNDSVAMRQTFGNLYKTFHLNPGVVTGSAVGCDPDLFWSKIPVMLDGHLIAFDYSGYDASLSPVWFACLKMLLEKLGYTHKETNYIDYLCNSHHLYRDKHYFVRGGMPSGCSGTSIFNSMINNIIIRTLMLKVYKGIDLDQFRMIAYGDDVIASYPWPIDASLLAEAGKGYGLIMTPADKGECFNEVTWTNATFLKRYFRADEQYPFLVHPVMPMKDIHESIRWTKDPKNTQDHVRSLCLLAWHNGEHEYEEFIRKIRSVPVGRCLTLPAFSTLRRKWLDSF
- test: Inhibition of Coxsackievirus B3 C-terminal His6-tagged protease 3C expressed in Escherichia coli BL21(DE3) at 650 uM using N-Dabcyl-KTLEALFQGPPVYE-(Edans)-NH2 as substrate after 30 mins by fluorescence assay relative to control
Calls of active or inactive are those of the source. No cut-off for these calls is given here.
endpoint: inhibition

INSERT INTO measurements (smiles, assay_value) VALUES
  ('Cn1cc(C(=O)Cn2cccc(C(F)(F)F)c2=O)cc1C(N)=O', '< 20%'),
  ('Cn1cc(C(=O)CSc2nnnn2C)cc1C(N)=O', '< 20%'),
  ('O=C(CSc1ccccc1)c1ccccc1', 'inactive'),
  ('CC1(C)CC(=O)c2cc(C(N)=O)c(=O)oc2C1', '> 30%'),
  ('Cc1ccc2[nH]c(C)c(C(=O)CSc3ccccc3)c2c1', 'inactive'),
  ('CC(=O)c1c(C)[nH]c(C(N)=O)c1C', '< 20%');
